- Tested on: HCC1954
- procedureDetails: Viability assay, BRCA1 WT cell line HCC1954
- Format: cell-based
- testSettings: Homo sapiens, HCC1954, viability, read-out: HCC1954 rel IC50
pIC50: −log10 of the molar value.
# pIC50 annotations

molecule	pIC50
COc1ncnc(C2CC2)c1-c1ncc2c(n1)n(Cc1ccc(-c3nc(C(F)(F)F)cn3C)c(F)c1)c(=N)n2CC(F)(F)F [Example T-118]	≤ 5.00
CC(C)c1ccccc1-c1nc(O)c2c(n1)n(Cc1ccc(-c3nc(C(F)(F)F)cn3C)cc1)c(=N)n2C [Example A-32]	≤ 5.00
C=C(C)c1c(F)cccc1-c1nc(C)c2c(n1)n(Cc1ccc(-c3nc(C(F)(F)F)cn3C)cc1)c(=N)n2C [Example A-31]	5.00 to 6.60
CC(C)c1ccccc1-c1ncc2c(n1)n(CC1CCN(c3nc(C(F)(F)F)cn3C)CC1)c(=N)n2C [Example B-1]	5.00 to 6.60
COc1nsc(OC)c1-c1ncc2c(n1)n(Cc1ccc(-c3nc(C(F)(F)F)cn3C)cc1)c(=N)n2C [Example T-052]	5.00 to 6.60
COc1ncc(F)cc1-c1ncc2c(n1)n(Cc1ccc(-c3nc(C(F)(F)F)cn3C)cc1)c(=N)n2C [Example T-013]	≤ 5.00
CC(C)c1c(F)cccc1-c1ncc2c(n1)n(Cc1ccc(-c3nc(C(F)(F)F)cn3C)cc1)c(=N)n2C [Example B-9]	5.00 to 6.60
CC(C)c1cc(F)ccc1-c1ncc2c(n1)n(Cc1ccc(-c3nc(C(F)(F)F)cn3C)cc1)c(=N)n2C [Example B-10]	5.00 to 6.60
Cn1cc(C(F)(F)F)nc1-c1ccc(Cn2c(=N)n(CC(F)(F)F)c3cnc(-c4c(OCF)ncnc4C4CC4)nc32)cc1 [Example T-147]	≤ 5.00
CCn1cc(C(F)(F)F)nc1-c1ccc(Cn2c(=N)n(CC(F)(F)F)c3cnc(-c4c(OC)ncnc4C4CC4)nc32)cc1 [Example T-132]	≤ 5.00
COc1nc(C)nc(C2CC2)c1-c1ncc2c(n1)n(Cc1ccc(-c3nc(C(F)(F)F)cn3C)cc1)c(=N)n2C [Example T-146]	≤ 5.00
CC(C)c1ccccc1-c1ncc2c(n1)n(Cc1ccc(-c3nc(C(F)(F)F)c[nH]3)cc1)c(=N)n2C [Example A-5]	5.00 to 6.60
Cn1cc(C(F)(F)F)nc1-c1ccc(Cn2c(=N)n(CC(F)F)c3cnc(-c4ccccc4C(F)(F)F)nc32)cc1 [Example T-049]	≤ 5.00
COc1ncnc(C2CC2)c1-c1ncc2c(n1)n(Cc1ccc(-n3nc(C(F)(F)F)cc3OC)cc1)c(=N)n2CC(F)(F)F [Example T-117]	≤ 5.00
CC(C)c1ccccc1-c1ncc2c(n1)n(C1(c3ccc(-c4nc(C(F)(F)F)cn4C)cc3)CC1)c(=N)n2C [Example T-003]	5.00 to 6.60
COc1ncnc(C2CC2)c1-c1ncc2c(n1)n(Cc1ccc(-c3nc(C(F)(F)F)cn3C)cc1)c(=N)n2C [Example T-019]	≤ 5.00
Cn1cc(C(F)(F)F)nc1-c1ccc(Cn2c(=N)n(C)c3cnc(-c4cccnc4OC(F)F)nc32)cc1 [Example T-082]	≤ 5.00
Cc1cccc(-c2ncc3c(n2)n(Cc2ccc(-c4nc(C(F)(F)F)cn4C)cc2)c(=N)n3C)c1C(C)C [Example T-002]	5.00 to 6.60
Cn1cc(C(F)(F)F)nc1-c1ccc(Cn2c(=N)n(C)c3cnc(-c4cccc(F)c4OC(F)F)nc32)cc1 [Example T-027]	5.00 to 6.60
CC(C)c1ccccc1-c1ncc2c(n1)n(Cc1ccc(-c3nc(C(F)(F)F)cn3C)cc1Cl)c(=N)n2C [Example T-047]	≤ 5.00
COc1cc(C(F)(F)F)nn1-c1ccc(Cn2c(=N)n(C)c3cnc(-c4ccccc4C(F)(F)F)nc32)cc1 [Example T-004]	5.00 to 6.60
COc1ncnc(C2CC2)c1-c1ncc2c(n1)n(Cc1ccc(-c3nc(C(F)(F)F)cn3C)cc1O)c(=N)n2C [Example T-133]	≤ 5.00
COc1ncnc(C2CC2)c1-c1ncc2c(n1)n([C@@H](C)c1ccc(-c3nc(C(F)(F)F)cn3C)cc1)c(=N)n2C [Example T-142]	≤ 5.00
Cn1cc(C(F)(F)F)nc1-c1ccc(Cn2c(=N)n(CC(F)(F)F)c3cnc(-c4c(OC(F)(F)F)ccnc4C4CC4)nc32)cc1 [Example T-112]	≤ 5.00
CCOc1ncnc(C2CC2)c1-c1ncc2c(n1)n(Cc1ccc(-c3nc(C(F)(F)F)cn3C)cc1)c(=N)n2CC(F)(F)F [Example T-119]	≤ 5.00
COc1ncnc(C2CC2)c1-c1ncc2c(n1)n(Cc1ccc(-n3nc(C(F)(F)F)cc3C)cc1)c(=N)n2CC(F)(F)F [Example T-098]	≤ 5.00
CC(C)c1ccccc1-c1ncc2c(n1)n(Cc1ccc(-n3ccc(C(F)(F)F)n3)cc1)c(=N)n2C [Example A-24]	5.00 to 6.60
